Reference source for all entries: PubChem BioAssay

Target: Pantothenate synthetase (Mycobacterium tuberculosis (strain ATCC 25618 / H37Rv)) (UniProt P9WIL5)
Sequence (P9WIL5 whole entry, looked up): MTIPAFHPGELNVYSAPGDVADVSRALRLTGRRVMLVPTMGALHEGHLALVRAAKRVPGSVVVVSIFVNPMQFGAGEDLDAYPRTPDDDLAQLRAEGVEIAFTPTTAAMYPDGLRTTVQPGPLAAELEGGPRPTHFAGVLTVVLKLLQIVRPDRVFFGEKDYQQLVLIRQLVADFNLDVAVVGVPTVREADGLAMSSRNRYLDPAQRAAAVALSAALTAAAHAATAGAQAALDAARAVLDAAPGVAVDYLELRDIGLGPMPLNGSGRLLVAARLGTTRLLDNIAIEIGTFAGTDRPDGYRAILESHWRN
Assay: Coupled enzyme confirmation of inhibitors against recombinant Mtb PanC (AID 375);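 also: 0% = full reaction with vehicle and 100% = no enzyme background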
Conditions: coupled enzyme assay; at 10 µM, active compounds read high
assay readout: inhibition (%)
Numbers only, in %.

Example cases with answers are listed next.
# molecule, assay readout, recorded number
measured = [
    ("COc1ccc(-c2nc3c(n2O)CCC/C3=N\\O)cc1", "inhibition", 0),
    ("c1coc(-c2nnc(NC3=NCCC3)o2)c1", "inhibition", 0),
    ("CCN1C(=O)c2cccc3c(NC(=O)c4ccc(S(=O)(=O)N(C)C)cc4)ccc1c23", "inhibition", 1),
]

Please give inhibition for each item listed below.
1. CCCSC1=C(C#N)C(c2cc(OC)ccc2OC)CC(=O)N1 (stereo unspecified)
2. O=C(/C=N/O)Nc1cccnc1
3. O=C(Nc1ccccc1C(=O)N1CCN(c2ccccc2)CC1)c1ccco1

1: 14; 2: 0; 3: 0

====

Biological target: Pantothenate synthetase (Mycobacterium tuberculosis (strain ATCC 25618 / H37Rv))
Assay: Coupled enzyme confirmation of inhibitors against recombinant Mtb PanC (AID 375);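 also: 0% = full reaction with vehicle and 100% = no enzyme background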
Conditions: coupled enzyme assay; at 10 µM, active compounds read high
Could you please report measured inhibition for the items listed next?
One number for each entry, in %.

Example cases with answers are listed next.
# molecule, assay target, recorded number
rows = [
    ("CCOC(=O)c1ccccc1NC(=O)c1cc2sccc2n1C", "Pantothenate synthetase (Mycobacterium tuberculosis (strain ATCC 25618 / H37Rv))", 2),
    ("CCOC(=O)N1CCN(CC(=O)Nc2cc(C)nn2-c2nc3ccccc3s2)CC1", "Pantothenate synthetase (Mycobacterium tuberculosis (strain ATCC 25618 / H37Rv))", 0),
    ("CCOC(=O)C(CC)Sc1nc2c(c(=O)[nH]c(=O)n2C)n1C/C=C(/C)Cl (stereo not drawn)", "Pantothenate synthetase (Mycobacterium tuberculosis (strain ATCC 25618 / H37Rv))", 8),
    ("CC1(C)CNC(=O)c2sc(N3CCOCC3)nc2C1", "Pantothenate synthetase (Mycobacterium tuberculosis (strain ATCC 25618 / H37Rv))", 0),
    ("O=C(CSc1nnc(-c2ccccc2F)o1)OCc1ccccc1", "Pantothenate synthetase (Mycobacterium tuberculosis (strain ATCC 25618 / H37Rv))", 0),
    ("CCn1c(=O)cc(OCC(=O)NCCCN2CC(C)CC(C)C2)c2ccccc21 (stereo not drawn)", "Pantothenate synthetase (Mycobacterium tuberculosis (strain ATCC 25618 / H37Rv))", 3),
    ("CC1(C)CC(=O)C2=C(C1)NC(=O)CC2c1ccc(N(CCC#N)CCC#N)cc1 (stereo not drawn)", "Pantothenate synthetase (Mycobacterium tuberculosis (strain ATCC 25618 / H37Rv))", 9),
    ("CCOC(=O)c1ccc2ncc(C(=O)OCC)c(NCCN(C)C)c2c1", "Pantothenate synthetase (Mycobacterium tuberculosis (strain ATCC 25618 / H37Rv))", 0),
    ("COc1cccc(-n2c(C)nc3c(cnn3-c3ccc(C)cc3)c2=O)c1", "Pantothenate synthetase (Mycobacterium tuberculosis (strain ATCC 25618 / H37Rv))", 3),
    ("Cc1ccc(CN2C(=O)CCC2C(=O)NCC2CCCO2)cc1 (stereo not drawn)", "Pantothenate synthetase (Mycobacterium tuberculosis (strain ATCC 25618 / H37Rv))", 3),
]

Please give inhibition for each item listed below.
1. COc1cc(NC2=CC(=O)CC(C)(C)C2)cc(OC)c1
2. COCC(=O)N(Cc1cc2cc(OC)ccc2[nH]c1=O)c1ccccc1
3. Clc1c(CSc2nc3ccccc3o2)nc2sccn12
4. O=C(c1ccc2nc(N3CCCCC3)sc2c1)N1CCN(c2ccccn2)CC1
5. CCCNC(=O)c1ccccc1C(=O)NCCC
6. CCN1CCCC1CN=Cc1c(O)n(-c2ccccc2)c(=O)c2ccccc12 (stereo not drawn)
7. O=C(Nc1ccc(F)cc1)NC1CCN(Cc2nnnn2Cc2ccco2)CC1
8. CCn1cc(C(=O)NCC2CCCO2)c(=O)c2cc(S(=O)(=O)N(C)C3CCCCC3)ccc21 (stereo not drawn)

1. 0
2. 0
3. 1
4. 0
5. 0
6. 0
7. 0
8. 5

Please give inhibition for each item listed below.
1. Cc1cc(C(=O)Nc2cccc(O)c2)c(C)o1
2. CC1CCCCC1NC(=O)COc1ccc(-n2cnnn2)cc1 (stereo not drawn)

[20, 0]

Please give inhibition for each item listed below.
1. CN1C(=O)C(CC(=O)N2CCN(C(c3ccccc3)c3ccccc3)CC2)N(C)C1=O (stereo not drawn)
2. CCn1c(=O)cc(OCC(=O)NC2CCCCC2)c2ccccc21
3. CCSc1nnc(NC(=O)CCNS(=O)(=O)c2cc(Br)cnc2N)s1

0
0
3
